# assayed system: T1, mouse MET extracellular domain (ECD) (mouse, UniProt P16056 25-931)
# T1 construct: range 1-931; recombinant ECD; also called mMET; mouse MET ECD
# T1 sequence (P16056 25-931 limits assumed, form in doubt): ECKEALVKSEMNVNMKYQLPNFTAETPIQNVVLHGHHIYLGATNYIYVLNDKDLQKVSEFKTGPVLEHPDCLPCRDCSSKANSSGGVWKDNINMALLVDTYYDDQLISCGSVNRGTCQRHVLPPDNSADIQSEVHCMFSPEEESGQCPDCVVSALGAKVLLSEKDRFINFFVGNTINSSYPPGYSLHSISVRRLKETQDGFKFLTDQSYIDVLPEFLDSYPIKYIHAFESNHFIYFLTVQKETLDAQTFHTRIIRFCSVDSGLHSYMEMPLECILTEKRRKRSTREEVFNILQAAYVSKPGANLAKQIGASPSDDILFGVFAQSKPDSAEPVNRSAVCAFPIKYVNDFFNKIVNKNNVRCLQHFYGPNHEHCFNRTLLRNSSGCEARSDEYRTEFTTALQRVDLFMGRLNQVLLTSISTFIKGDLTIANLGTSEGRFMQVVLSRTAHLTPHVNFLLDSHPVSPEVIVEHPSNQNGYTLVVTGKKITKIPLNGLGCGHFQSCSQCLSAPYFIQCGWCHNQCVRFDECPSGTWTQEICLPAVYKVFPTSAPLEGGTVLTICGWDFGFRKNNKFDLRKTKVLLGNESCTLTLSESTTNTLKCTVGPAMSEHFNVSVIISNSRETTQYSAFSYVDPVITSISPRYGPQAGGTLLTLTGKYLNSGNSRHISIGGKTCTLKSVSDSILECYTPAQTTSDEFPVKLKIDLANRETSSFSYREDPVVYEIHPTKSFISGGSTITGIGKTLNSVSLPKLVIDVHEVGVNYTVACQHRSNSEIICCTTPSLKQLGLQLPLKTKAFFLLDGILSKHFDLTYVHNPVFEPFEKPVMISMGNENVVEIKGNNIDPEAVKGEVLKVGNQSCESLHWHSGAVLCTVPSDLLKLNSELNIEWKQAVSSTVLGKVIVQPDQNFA
# measurement description: ELISA, periplasmic Fab on MET ECD
Below, each of the binders is paired with its reported ELISA OD450 value.

{"binder": "Fab 71D6 (Fab, V domains shown, llama Fab (VH-CH1, lambda VL-CL) with MYC flag, crude periplasmic extract) VH: ELQLVESGGGLVQPGGSLRLSCAASGFTFSSYGMSWVRQAPGKGLEWVSAINSYGGSTSYADSVKGRFTISRDNAKNTLYLQMNSLKPEDTAVYYCAKEVRADLSRYNDYESYDYWGQGTQVTVSS VL: QPVLNQPSALSVTLGQTAKITCQGGSLGARYAHWYQQKPGQAPVLVIYDDDSRPSGIPERFSGSSSGGTATLTISGAQAEDEGDYYCQSADSSGSVFGGGTHLTVL", "measurement units": "AU", "ELISA OD450": 3.07}
{"binder": "Fab 71D4 (Fab, V domains shown, llama Fab (VH-CH1, lambda VL-CL) with MYC flag, crude periplasmic extract) VH: ELQLVESGGGLVQPGGSLRLSCAASGFTFSGYGMSWVRQAPGKGLEWVSDINSGGGSTSYADSVKGRFTISRDNAKNTLYLQMNSLKPEDTAVYYCAKDMRLYLARYNDYEAWDYWGQGTQVTVSS VL: SSALTQPSALSVTLGQTAKITCQGGSLGSSYAHWYQQKPGQAPVLVIYDDDSRPSGIPERFSGSSSGGTATLTISGAQAEDEGDYYCQSADSSGNAAVFGGGTHLTVL", "measurement units": "AU", "ELISA OD450": 0.307}
